- Test System: Recombinant HCV polymerase (Hepatitis C virus genotype 1b, UniProt P26663)
- Construct: 2.5 pmoles (0.15 μg) HCV polymerase protein
- Sequence (P26663 2420-3010): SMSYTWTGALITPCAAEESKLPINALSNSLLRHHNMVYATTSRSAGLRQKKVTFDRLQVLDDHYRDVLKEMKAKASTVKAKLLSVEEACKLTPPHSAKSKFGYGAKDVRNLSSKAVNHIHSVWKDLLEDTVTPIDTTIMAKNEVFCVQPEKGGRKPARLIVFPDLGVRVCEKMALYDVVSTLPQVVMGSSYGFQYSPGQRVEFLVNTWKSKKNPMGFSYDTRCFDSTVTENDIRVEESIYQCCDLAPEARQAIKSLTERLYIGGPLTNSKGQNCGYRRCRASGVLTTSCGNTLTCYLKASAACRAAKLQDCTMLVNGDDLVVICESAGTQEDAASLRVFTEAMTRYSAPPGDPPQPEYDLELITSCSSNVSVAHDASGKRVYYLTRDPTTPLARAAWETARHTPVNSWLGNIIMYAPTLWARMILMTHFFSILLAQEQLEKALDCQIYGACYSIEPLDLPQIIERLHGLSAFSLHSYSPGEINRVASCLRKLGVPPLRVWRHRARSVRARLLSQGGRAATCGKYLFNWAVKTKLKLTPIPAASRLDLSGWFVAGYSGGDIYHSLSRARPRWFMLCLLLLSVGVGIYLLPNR
- Assay Protocol: HCV Polymerase Inhibition Assay
- Type: biochemical
- Study Conditions: primer/template-directed transcription, 30 minutes at 30° C.; category symbol
Experimental Endpoint: IC50

For COc1c(F)cc(CCC2(C3CCCC3)CC(=O)CC(=O)O2)cc1F (centres unmarked) [Example 43] , what is its reported IC50? 1 to 10 µM

For O=C1CC(=O)OC(CCc2ccc(C(=O)N3CC[C@H](O)C3)cc2)(C2CCCC2)C1 (stereo in doubt) [Example 69] , what is its reported IC50? 10 to 50 µM

For COc1ccc(CCC2(C3CCCC3)CC(=O)C(Oc3ccccc3)C(=O)O2)c(OC)c1 (centres unmarked) [Example 163] , what is its reported IC50? 10 to 50 µM

For C=CCOCCC1(C2CCCC2)CC(O)=C(Sc2nc3nc(C)cc(C)n3n2)C(=O)O1 (centres unmarked) [Example 104] , what is its reported IC50? 10 to 50 µM

For COc1ccc(CCC2(C3CCCC3)CC(O)=C(Sc3nc4nc(C)cc(C)n4n3)C(=O)O2)cc1Cl (centres unmarked) [Example 101] , what is its reported IC50? < 1 µM

For CCOc1ccc(CCC2(C3CCCC3)CC(=O)CC(=O)O2)cc1Cl (centres unmarked) [Example 44] , what is its reported IC50? < 1 µM

For Cc1cc(C)n2nc(SC3=C(O)CC(CCc4ccc(OCc5ccccc5)cc4)(C4CCCC4)OC3=O)nc2n1 (centres unmarked) [Example 122] , what is its reported IC50? < 1 µM

For COc1cc(OC)c(CCC2(C3CCCC3)CC(O)=C(Sc3nc(N)c4cn[nH]c4n3)C(=O)O2)cc1Cl (centres unmarked) [Example 97] , what is its reported IC50? < 1 µM

For Cc1cc(SC2=C(O)C[C@@](CCc3cccc(O)c3)(C3CCCC3)OC2=O)c(C(C)(C)C)cc1CO [Example 152] , what is its reported IC50? 1 to 10 µM

For CCCN(C1=C(O)CC(C2CCCC2)(C2CCCC2)OC1=O)c1cccc(NS(=O)(=O)c2cccs2)c1 [Example 186] , what is its reported IC50? 10 to 50 µM

For COc1ccc(CCC2(C3CCCC3)CC(O)=C(Sc3nc4nc(C)cc(C)n4n3)C(=O)O2)cc1 (centres unmarked) [Example 92] , what is its reported IC50? < 1 µM

For O=C1OC(CCc2ccc(O)cc2)(C2CCCC2)CC(O)=C1SCc1ccccc1 (centres unmarked) [Example 84] , what is its reported IC50? 1 to 10 µM

For COc1ccc(CCC2(C3CCCC3)CC(=O)C(C(=O)c3ccccc3)C(=O)O2)c(OC)c1 (centres unmarked) [Example 175] , what is its reported IC50? 10 to 50 µM

For CC(=O)c1cccc(CCC2(C3CCCC3)CC(=O)CC(=O)O2)c1 (centres unmarked) [Example 64] , what is its reported IC50? 1 to 10 µM

For Cc1cc(SC2=C(O)CC(CCc3ccc(O)cc3)(C3CCCCC3)OC2=O)c(C(C)(C)C)cc1OS(=O)(=O)c1ccc(C#N)cc1 (centres unmarked) [Example 139] , what is its reported IC50? 1 to 10 µM

For COc1cc(OC)c(CCC2(C3CCCC3)CC(O)=C(SC3=NCCCN3)C(=O)O2)cc1Cl (centres unmarked) [Example 110] , what is its reported IC50? < 1 µM

For COc1cccc(CCC2(C3CCCC3)CC(O)=CC(=O)O2)c1 (centres unmarked) [Example 16] , what is its reported IC50? 10 to 50 µM

For CCCN(C1=C(O)C[C@@](CCc2cccc(O)c2)(C2CCCC2)OC1=O)c1ccccc1 [Example 155] , what is its reported IC50? 1 to 10 µM

For Cc1cc(SC2=C(O)CC(CCC3CCCC3)(C3CCCC3)OC2=O)c(C(C)(C)C)cc1CO (centres unmarked) [Example 145] , what is its reported IC50? 10 to 50 µM

For CCCN(C1=C(O)CC(C2CCCC2)(C2CCCC2)OC1=O)c1cccc(NS(=O)(=O)c2ccccn2)c1 [Example 184] , what is its reported IC50? 10 to 50 µM

For O=C1C=C(O)CC(CCc2ccc(OCc3ccc(C(F)(F)F)nc3)cc2)(C2CCCC2)O1 (centres unmarked) [Example 52] , what is its reported IC50? 10 to 50 µM

For Cc1cc(SC2=C(O)CC(CCc3cc(Cl)c(N)c(Cl)c3)(C(C)C)OC2=O)c(C(C)(C)C)cc1N (centres unmarked) [Example 138] , what is its reported IC50? 10 to 50 µM

For O=C1CC(=O)OC(CCc2ccc(F)c(F)c2)(C2CCCC2)C1 (centres unmarked) [Example 54] , what is its reported IC50? 10 to 50 µM

For COc1cc(OC)c(CCC2(C3CCCC3)CC(O)=C(Sc3nc4nc(C)cc(C)n4n3)C(=O)O2)cc1Cl (centres unmarked) [Example 91] , what is its reported IC50? < 1 µM

For O=C1CC(=O)OC(CCc2nccs2)(C2CCCC2)C1 (centres unmarked) [Example 12] , what is its reported IC50? > 50 µM

For Cc1cc(SC2=C(O)CC(CCc3ccc(O)cc3)(C3CCCCC3)OC2=O)c(C(C)(C)C)cc1N (centres unmarked) [Example 143] , what is its reported IC50? 1 to 10 µM

For COc1ccc(CCC2(C3CCCC3)CC(O)=C(Sc3nnnn3CCN(C)C)C(=O)O2)cc1 (centres unmarked) [Example 116] , what is its reported IC50? 1 to 10 µM

For COc1ccc(CCC2(C3CCCC3)CC(O)=C(Sc3nc4nc[nH]c4c(=O)[nH]3)C(=O)O2)cc1 (centres unmarked) [Example 118] , what is its reported IC50? < 1 µM

For O=C1OC(CCc2ccc(OCc3ccccc3)cc2)(C2CCCC2)CC(O)=C1Sc1nc(O)c2cc[nH]c2n1 (centres unmarked) [Example 123] , what is its reported IC50? < 1 µM

For CCCN(C1=C(O)CC(CCc2ccc(O)cc2)(C2CCCC2)OC1=O)c1ccccc1 (centres unmarked) [Example 159] , what is its reported IC50? 1 to 10 µM

For COc1cc(OC)c(CCC2(C3CCCC3)CC(O)=C(Sc3nc(O)c4cc[nH]c4n3)C(=O)O2)cc1Cl (centres unmarked) [Example 105] , what is its reported IC50? < 1 µM

For C=CCOCc1ccccc1CCC1(C2CCCC2)CC(=O)CC(=O)O1 (centres unmarked) [Example 5] , what is its reported IC50? 10 to 50 µM

Attribution: patent US7115658B2
